assayedTarget: proton pump (H+/K+-ATPase) (Sus scrofa (Pig))
Sequence (P19156 2-1034): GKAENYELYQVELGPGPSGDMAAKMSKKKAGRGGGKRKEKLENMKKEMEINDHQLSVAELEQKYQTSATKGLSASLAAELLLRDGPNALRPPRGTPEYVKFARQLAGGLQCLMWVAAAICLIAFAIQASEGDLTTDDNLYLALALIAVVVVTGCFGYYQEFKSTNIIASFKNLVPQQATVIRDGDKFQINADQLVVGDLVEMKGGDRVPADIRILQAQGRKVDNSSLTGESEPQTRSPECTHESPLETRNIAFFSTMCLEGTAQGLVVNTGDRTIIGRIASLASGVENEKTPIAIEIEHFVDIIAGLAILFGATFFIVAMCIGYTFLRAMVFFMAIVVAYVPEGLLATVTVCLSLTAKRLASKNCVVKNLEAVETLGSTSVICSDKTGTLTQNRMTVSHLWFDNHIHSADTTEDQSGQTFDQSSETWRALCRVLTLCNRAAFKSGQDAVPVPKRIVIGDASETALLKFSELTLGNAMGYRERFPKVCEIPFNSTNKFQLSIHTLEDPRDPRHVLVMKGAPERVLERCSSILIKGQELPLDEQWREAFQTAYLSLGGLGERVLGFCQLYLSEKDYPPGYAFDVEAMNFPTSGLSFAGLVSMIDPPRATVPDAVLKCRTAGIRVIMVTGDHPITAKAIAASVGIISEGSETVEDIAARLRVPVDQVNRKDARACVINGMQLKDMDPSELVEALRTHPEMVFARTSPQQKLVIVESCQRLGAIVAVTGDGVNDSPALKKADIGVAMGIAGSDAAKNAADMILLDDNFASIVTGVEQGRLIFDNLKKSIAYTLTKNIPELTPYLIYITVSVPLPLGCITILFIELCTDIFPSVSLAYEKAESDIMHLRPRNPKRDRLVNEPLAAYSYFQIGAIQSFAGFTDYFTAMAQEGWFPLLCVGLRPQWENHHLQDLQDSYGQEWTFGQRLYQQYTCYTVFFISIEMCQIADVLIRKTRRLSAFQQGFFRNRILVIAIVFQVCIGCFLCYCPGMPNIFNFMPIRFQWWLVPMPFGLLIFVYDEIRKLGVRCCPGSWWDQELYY
Sequence (P18434 whole entry partner): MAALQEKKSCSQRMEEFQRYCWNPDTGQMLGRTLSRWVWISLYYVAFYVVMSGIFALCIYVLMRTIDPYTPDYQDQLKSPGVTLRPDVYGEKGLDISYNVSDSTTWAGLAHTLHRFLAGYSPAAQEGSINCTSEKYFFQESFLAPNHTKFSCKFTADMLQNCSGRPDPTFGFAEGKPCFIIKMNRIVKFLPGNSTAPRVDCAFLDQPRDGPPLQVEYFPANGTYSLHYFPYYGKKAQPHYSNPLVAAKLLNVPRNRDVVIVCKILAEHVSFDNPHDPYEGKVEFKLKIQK
methodDescription: Inhibitory activity on proton pump (H+/K+-ATPase) activity
Format: biochemical
conditionLabel: porcine gastric mucosal microsomes, 5 mM KCl, pH 6.4; read-out: Proton pump inhibitory activity (IC50)
1.0 if IC50 is below 70 nM. 0.0 if not; exact matches included in 0.0.

# molecule, assayedTarget, answerLabel
records = [
    ("[2H]C([2H])([2H])NCc1cc(-c2cccc(F)c2)n(S(=O)(=O)c2ccc(Cl)cc2)c1 [Example 10]", "proton pump (H+/K+-ATPase) (Sus scrofa (Pig))", 1.0),
    ("[2H]C([2H])([2H])NCc1cn(S(=O)(=O)c2ccc(OC)nc2)c(-c2ccc(F)cc2F)c1OC [Example 37]", "proton pump (H+/K+-ATPase) (Sus scrofa (Pig))", 0.0),
]

Strictly below 70 nM in IC50? [2H]C([2H])([2H])NCc1cn(S(=O)(=O)c2cccnc2)c(-c2c(F)cc(F)cc2F)c1OC [Example 39] 1.0

Strictly below 70 nM in IC50? [2H]C([2H])([2H])NCc1cc(-c2ccccc2F)n(S(=O)(=O)c2ccc(Cl)cc2)c1 [Example 6] 1.0
